Test system: U-251
Assay: NCI tumour cell line growth inhibition, 48 h
Activity calls are given as the source filed them. Rule as the data show it: active = GI50 up to about 1.1 µM and inactive = higher.
Outcomes you can answer with include only these: active, inactive

Would you please look over these solved cases?
[[record]]
molecule = "CCOC(=O)c1cc(NC(=O)c2ccccc2)c(=O)n2c(cc3c(Cl)cccc32)c1O"
label_value = "inactive"

[[record]]
molecule = "N=C1N(c2ccccc2)C(=S)/C(=N/c2ccccc2)N1c1ccccc1"
label_value = "inactive"

[[record]]
molecule = "O=C(CC(=O)N1N=C(N2CCCCC2)CC1c1ccccc1)Nc1ccc(Cl)cc1 (stereo unspecified)"
label_value = "inactive"

[[record]]
molecule = "CC1(COS(=O)(=O)OCC2(C)COS(=O)(=O)OC2)COS(=O)(=O)OC1"
label_value = "inactive"


Which outcome was assigned to CCCCNC(=O)OCC(COc1ccccc1OC)OC(=O)NCCCC (stereo unspecified) in this test? inactive

Which outcome was assigned to Cc1cn(CCC(N)C(=O)O)c(=O)[nH]c1=O (stereo unspecified) in this test? inactive

###

I'd be grateful if you could share measured GI50 for these entries.
Test system: SF-295
Experiment: NCI tumour cell line growth inhibition, 48 h
Active and inactive are the calls of the source. Rule as the data show it: active = GI50 up to about 1.1 µM and inactive = higher.

[[record]]
molecule = "O=C(Nc1ccccc1)N(C1=NCC(CI)S1)c1ccc(F)cc1F (stereo unspecified)"
assay_readout = "GI50"
result = "> 100 µM (inactive)"

[[record]]
molecule = "COP(=O)(OC)/C(=C\\C1=CN(C(c2ccccc2)(c2ccccc2)c2ccccc2)CN1)NC=O"
assay_readout = "GI50"
result = "16.4 µM (inactive)"

[[record]]
molecule = "COc1ccc2c(C3(O)CCNCC3)c[nH]c2c1"
assay_readout = "GI50"
result = "> 100 µM (inactive)"

[[record]]
molecule = "CC1NOC(=O)C1/N=N/c1ccccc1Cl (stereo unspecified)"
assay_readout = "GI50"
result = "74.1 µM (inactive)"

[[record]]
molecule = "COc1ccc(N2C(=O)C(C#N)=C(SC)C(C#N)C2=O)cc1 (stereo unspecified)"
assay_readout = "GI50"
result = "> 100 µM (inactive)"


Please examine the following record next.
Query GI50 on SF-295 for COc1ccc(/N=N/N2CCCC2)cc1 > 100 µM (inactive)

###

Test system: LOX IMVI
Assay: NCI tumour cell line growth inhibition, 48 h
The source made the active and inactive calls. Rule as the data show it: active = GI50 up to about 1.1 µM and inactive = higher.
Outcomes you can answer with include only these: 1 (yes) = active, 0 (no) = inactive

Would you please look over these solved cases?
[[record]]
compound = "CN(C)CC(CC1=C(CC(CN(C)C)N(C)C)CCC1)N(C)C (configuration not stated)"
label_value = "0 (no)"

[[record]]
compound = "CCC1CCN/C(=N/S(=O)(=O)c2cc(C)c(Cl)cc2S)N1 (configuration not stated)"
label_value = "0 (no)"

[[record]]
compound = "Nc1ccc2nc3n(c2c1)C(c1c(F)cccc1F)SC3 (configuration not stated)"
label_value = "0 (no)"

[[record]]
compound = "COc1ccccc1N1CCN(CCCN2C(C(=O)c3ccccc3)=C(O)c3c(C)cc(C)nc3S2(=O)=O)CC1"
label_value = "0 (no)"

[[record]]
compound = "Fc1c(F)c(F)c2c(c1F)CSc1nc3ccccc3n1-2"
label_value = "0 (no)"


Which outcome was assigned to CCOC(=O)c1ncoc1[C@H]1COC(C)(C)O1 in this test? 0 (no)

Which outcome was assigned to O=c1c(/C=C/c2c(O)ccc3ccccc23)nnc2sc(-c3cccc(Br)c3)nn12 in this test? 0 (no)

Which outcome was assigned to Oc1cccc2nc3cc(CN4CCOCC4)c(CN4CCOCC4)cc3nc12 in this test? 0 (no)

Which outcome was assigned to COc1ccc(C)cc1C1CCC(=O)O1 (configuration not stated) in this test? 0 (no)

Which outcome was assigned to Cc1ccc2c(c1)Nc1ccccc1P2(=O)O in this test? 0 (no)

Which outcome was assigned to CN(NC(=O)CC(=O)NN(C)C(=S)c1ccccc1)C(=S)c1ccccc1 in this test? 0 (no)

Which outcome was assigned to O=S1(=O)OCCOS(=O)(=O)C1C1c2ccccc2-c2ccccc21 in this test? 0 (no)

Which outcome was assigned to NC(=O)c1csc(CCCCCCc2nc(C(N)=O)cs2)n1 in this test? 0 (no)

Which outcome was assigned to COc1cc([C@@H]2c3cc4c(cc3[C@@H](NC(=O)c3cccc(N)c3)C3COC(=O)[C@@H]32)OCO4)cc(OC)c1O (some centres not stated) in this test? 1 (yes)

Which outcome was assigned to BrC1=CCC23CC=C(Br)[C@H]4CC2(COC3)C[C@@H]1O4 (some centres not stated) in this test? 0 (no)

Which outcome was assigned to COC(=O)/C=C1\CCC(C)O1 (configuration not stated) in this test? 0 (no)

Which outcome was assigned to COc1cc(C(C)c2cc3c(cc2OCCCCOc2cc4c(cc2C(C)c2cc(OC)c(OC)c(OC)c2)OCO4)OCO3)cc(OC)c1OC (configuration not stated) in this test? 0 (no)

Which outcome was assigned to COC(=O)C[C@H](COCc1ccccc1)NC(=O)C[C@H](COCc1ccccc1)NC(=O)OC(C)(C)C in this test? 0 (no)

Which outcome was assigned to COc1ccc(/N=N/N2CCCC2)cc1 in this test? 0 (no)

Which outcome was assigned to CCC(C)NC1=NCC(C)S1 (configuration not stated) in this test? 0 (no)

Which outcome was assigned to Cc1nn(-c2ccccc2)c(C)c1/C=N/NC(=O)c1sc(=S)n(-c2ccccc2)c1N in this test? 0 (no)

Which outcome was assigned to N#Cc1cccc(/C=N/C23CC4CC(CC(C4)C2)C3)c1 in this test? 0 (no)

Which outcome was assigned to CCOC(=O)c1cc(C(=O)c2ccccc2)n2nc(-c3ccc(Cl)cc3)ccc12 in this test? 0 (no)

Which outcome was assigned to NCCCC[C@H](N)C(=O)Nc1ccc(-c2nc3ccccc3s2)cc1Cl in this test? 0 (no)
